Test system: P. yoelii PNP
Experiment: Phosphorylase activity assay, kinetic constants of recombinant PyPNP
Type: biochemical
Settings: substrate of P. yoelii PNP; 50 mM KPO4, pH 7.4
Description: Expression, Purification, and Characterization of PyPNP. Recombinant PyPNP was expressed with a C-terminal 6×His tag and the c-myc epitope and purified from induced bacterial culture by nickel affinity chromatography under native conditions. […] Cloning and Expression of P. yoelii PNP. […] The PyPNP open reading frame (ORF) sequence was amplified by PCR from genomic DNA of P. yoelii strain YM with primers PyPNP-F (5′-[…]-3′) (SEQ ID NO:8) and PyPNP-R (5′-[…]-3′) (SEQ ID NO:9). […]
experimental_endpoint: kcat (s⁻¹)
Unit s⁻¹ implied. Number only.

Ask: Entry OC[C@H]1O[C@@H](n2cnc3c(O)ncnc32)[C@H](O)[C@@H]1O [Inosine] , system P. yoelii PNP: what kcat was measured?
Reply: 3.5

Ask: Entry Nc1nc2c(ncn2[C@@H]2O[C@H](CO)[C@@H](O)[C@H]2O)c(=O)[nH]1 [Guanosine] , system P. yoelii PNP: what kcat was measured?
Reply: 3.8

Ask: Entry OC[C@H]1O[C@@H](n2cnc3c(O)ncnc32)C[C@@H]1O [2′-deoxyinosine] , system P. yoelii PNP: what kcat was measured?
Reply: 1.2

Ask: Entry CSc1ncnc2c1ncn2[C@@H]1O[C@H](CO)[C@@H](O)[C@H]1O [Methylthioinosine] , system P. yoelii PNP: what kcat was measured?
Reply: 3.4

* * *

Consider the following compounds; for each one, report its Km.
test system: P. yoelii PNP; assay: Phosphorylase activity assay, kinetic constants of recombinant PyPNP; type: biochemical; details: substrate of P. yoelii PNP; 50 mM KPO4, pH 7.4
Unit µM implied. Number only.

Ask: What value of measured Km is listed for `CSc1ncnc2c1ncn2[C@@H]1O[C@H](CO)[C@@H](O)[C@H]1O` ?
Reply: 5

Ask: What value of measured Km is listed for `OC[C@H]1O[C@@H](n2cnc3c(O)ncnc32)C[C@@H]1O` ?
Reply: 79

Ask: What value of measured Km is listed for `Nc1nc2c(ncn2[C@@H]2O[C@H](CO)[C@@H](O)[C@H]2O)c(=O)[nH]1` ?
Reply: 8.9

Ask: What value of measured Km is listed for `OC[C@H]1O[C@@H](n2cnc3c(O)ncnc32)[C@H](O)[C@@H]1O` ?
Reply: 8.6
